- experimental.system: human TRPM8 (Homo sapiens, UniProt Q7Z2W7)
- Construct: expressed in transfected cells; host or cells: Chinese hamster ovary (CHO) cells, T-REx tetracycline-inducible system, co-transfected with aequorin
- Sequence (Q7Z2W7 whole entry): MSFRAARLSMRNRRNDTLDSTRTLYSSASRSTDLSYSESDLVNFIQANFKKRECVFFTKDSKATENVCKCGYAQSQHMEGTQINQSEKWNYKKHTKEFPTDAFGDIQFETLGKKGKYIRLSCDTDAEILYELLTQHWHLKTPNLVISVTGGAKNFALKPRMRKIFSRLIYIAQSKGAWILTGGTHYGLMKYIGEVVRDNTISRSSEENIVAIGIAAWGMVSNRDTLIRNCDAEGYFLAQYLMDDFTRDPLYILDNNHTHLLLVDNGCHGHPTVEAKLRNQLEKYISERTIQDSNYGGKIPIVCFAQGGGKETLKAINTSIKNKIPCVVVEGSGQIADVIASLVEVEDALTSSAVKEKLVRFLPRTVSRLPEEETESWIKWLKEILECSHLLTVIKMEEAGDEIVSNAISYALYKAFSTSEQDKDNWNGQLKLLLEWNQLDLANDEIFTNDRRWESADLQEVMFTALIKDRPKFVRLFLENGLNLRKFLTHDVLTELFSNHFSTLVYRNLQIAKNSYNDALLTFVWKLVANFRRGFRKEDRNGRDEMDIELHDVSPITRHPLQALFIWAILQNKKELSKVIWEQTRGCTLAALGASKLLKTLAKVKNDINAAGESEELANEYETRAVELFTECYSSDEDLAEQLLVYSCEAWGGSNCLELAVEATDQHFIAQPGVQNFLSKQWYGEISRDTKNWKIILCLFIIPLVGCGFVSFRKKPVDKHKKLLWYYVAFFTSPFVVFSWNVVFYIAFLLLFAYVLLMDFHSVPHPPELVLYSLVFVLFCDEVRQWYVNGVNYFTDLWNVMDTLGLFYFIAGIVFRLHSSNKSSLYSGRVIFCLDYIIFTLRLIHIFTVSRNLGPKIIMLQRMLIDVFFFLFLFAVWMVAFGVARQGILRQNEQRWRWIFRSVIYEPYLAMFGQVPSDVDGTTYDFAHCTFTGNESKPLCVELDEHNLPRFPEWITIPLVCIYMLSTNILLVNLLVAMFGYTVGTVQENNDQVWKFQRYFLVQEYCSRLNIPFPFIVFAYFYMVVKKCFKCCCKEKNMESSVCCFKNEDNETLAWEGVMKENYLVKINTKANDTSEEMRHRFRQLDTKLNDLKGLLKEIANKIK
- method.notes: Luminescence readout assay for measuring intracellular calcium, icilin activation
- Assay type: cell-based
- recorded.conditions: CHO cells expressing human TRPM8, aequorin luminescence, 1 μM icilin activation; read-out: hTRPM8 IC50
pIC50: −log10 of the molar value.
measurement.type: pIC50

(a) O=C(N[C@@H](c1ccc(C(F)(F)F)cc1)c1ccccn1)c1ccc2oc(=O)[nH]c2c1
(b) Cn1cc(C(=O)N[C@@H](c2ccc(C(F)(F)F)cc2)c2ncccc2C(F)(F)F)ccc1=O
(c) COc1ccc([C@H](NC(=O)c2ccc3cccnc3c2)c2ncccc2C(F)(F)F)cc1F
(d) O=C(N[C@@H](c1cccc(F)c1)c1ncccc1C(F)(F)F)c1ccc2cccnc2c1
Order the items by recorded pIC50; the first position goes to the largest value. Response field: labels, in requested order.
a, b, c, d
(a: 8.24, b: 7.98, c: 7.43, d: 6.64)
